The reported measurements were obtained from patent US11566007B2.

tgt: NRAS Q61K (Homo sapiens (Human), UniProt P01111+P62937, Q61K)
Sequence (P01111 whole entry Q61K): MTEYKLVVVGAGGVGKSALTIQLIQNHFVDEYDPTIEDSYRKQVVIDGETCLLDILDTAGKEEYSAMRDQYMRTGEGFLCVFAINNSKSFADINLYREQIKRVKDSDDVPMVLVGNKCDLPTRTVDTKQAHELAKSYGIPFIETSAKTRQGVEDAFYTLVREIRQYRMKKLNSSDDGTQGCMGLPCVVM
Sequence (P62937 whole entry): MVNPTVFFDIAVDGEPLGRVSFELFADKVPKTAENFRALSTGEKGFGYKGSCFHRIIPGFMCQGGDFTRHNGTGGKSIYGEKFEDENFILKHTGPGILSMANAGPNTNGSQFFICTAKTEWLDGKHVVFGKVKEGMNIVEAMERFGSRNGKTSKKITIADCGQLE
assay: Ras-Raf (BRAF RBD) disruption / FRET / MOA assay, NRAS Q61K
Assay type: biochemical
test conditions: NRAS Q61K; Ras-Raf disruption/FRET/MOA assay; read-out: IC50* NRAS Q61K FRET data
Entries and their IC50 values follow.

Take a look at these entries with their results.
Fill in the blank: the reported IC50 of C=CC(=O)N1CC[C@H](C(=O)N(C)[C@H](C(=O)N[C@H]2Cc3cc(O)cc(c3)-c3ccc4c(c3)c(c(-c3cccnc3)n4[C@H](C)C#N)CC(C)(C)COC(=O)[C@@H]3CCCN(N3)C2=O)C(C)C)C1 [Example A193] is ____.
1000 to 10000 nM

Item CCn1c(-c2cccnc2[C@H](C)OC)c2c3cc(ccc31)-c1csc(n1)C[C@H](NC(=O)[C@H](C(C)C)N(C)C(=O)N(C)C1CN(C(=O)/C=C/[C@@H]3CCCN3C)C1)C(=O)N1CCC[C@H](N1)C(=O)OCC(C)(C)C2 (atropisomer, axis not shown) [Example A730] has what recorded IC50?
100 to 1000 nM

I would be grateful if you could share the reported IC50 for C=CC(=O)N1CC2(C1)OCCN2C(=O)N(C)[C@H](C(=O)N[C@H]1Cc2nc(cs2)-c2ccc3c(c2)c(c(-c2cccnc2[C@H](C)OC)n3CC)CC(C)(C)COC(=O)[C@@H]2CCCN(N2)C1=O)C(C)C (atropisomer, axis not shown) [Example A620] .
10 to 100 nM

Continuing:
# get_value(readout='IC50', item= C=CC(=O)N(C)[C@H]1C[C@@H](N(C)C(=O)N(C)[C@H](C(=O)N[C@H]2Cc3nc(cs3)-c3ccc4c(c3)c(c(-c3cccnc3[C@H](C)OC)n4CC)CC(C)(C)COC(=O)[C@@H]3CCCN(N3)C2=O)C(C)C)C1 (atropisomer, axis not shown) [Example A704] )
10 to 100 nM

So what does the record say about IC50 for CO[C@@H](C)c1ncccc1-c1c2c3cc(ccc3n1CC(F)(F)F)-c1cc(F)cc(c1)C[C@H](NC(=O)[C@@H](COC1CN(C(=O)C#CC(C)(C)N(C)C)C1)C(C)C)C(=O)N1CCC[C@H](N1)C(=O)OCC(C)(C)C2 (atropisomer, axis not shown) [Example A348] ?
> 10000 nM
